# MEASUREMENT TARGET: T1, human CD228 on the cell surface (RPMI-7951 cells stably expressing human CD228; A375 cells) (human) (UniProt P08582)
# T1 sequence (looked up): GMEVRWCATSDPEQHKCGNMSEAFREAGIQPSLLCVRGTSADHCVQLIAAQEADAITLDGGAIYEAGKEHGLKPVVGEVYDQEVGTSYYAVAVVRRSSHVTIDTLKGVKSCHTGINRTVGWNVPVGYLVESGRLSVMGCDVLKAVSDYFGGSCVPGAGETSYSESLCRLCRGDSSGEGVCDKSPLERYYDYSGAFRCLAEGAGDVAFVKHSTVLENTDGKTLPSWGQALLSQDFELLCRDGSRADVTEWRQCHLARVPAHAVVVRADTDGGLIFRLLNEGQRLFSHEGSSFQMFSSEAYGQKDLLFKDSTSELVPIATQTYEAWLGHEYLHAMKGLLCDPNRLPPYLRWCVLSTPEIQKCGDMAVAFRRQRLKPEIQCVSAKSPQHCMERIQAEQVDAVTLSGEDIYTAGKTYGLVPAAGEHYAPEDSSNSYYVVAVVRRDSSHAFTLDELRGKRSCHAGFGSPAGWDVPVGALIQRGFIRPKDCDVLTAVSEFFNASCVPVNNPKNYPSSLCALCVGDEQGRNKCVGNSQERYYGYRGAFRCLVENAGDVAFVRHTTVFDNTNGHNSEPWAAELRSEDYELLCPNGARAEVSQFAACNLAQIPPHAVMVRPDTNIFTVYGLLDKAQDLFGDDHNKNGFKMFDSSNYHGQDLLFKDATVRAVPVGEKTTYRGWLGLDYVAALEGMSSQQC
# METHOD: competition flow cytometry, RPMI-7951 cells stably expressing human CD228; competitor 5 nM AF647-labeled mL49; unlabeled antibody 0.06-1000 nM
EXPERIMENTAL READOUT: IC50 (read off the curve)

[[record]]
binder = "hL49ec HBLB (antibody, V domains shown) VH: QVQLQESGPGLVKPSETLSLTCTVSGDSITSGYWNWIRQFPGKGLEYMGYISDSGITYYNPSLKSRITISRDTSKNQYSLKLSSVTAADTAVYYCARRTLATYYAMDYWGQGTLVTVSS VL: DFVMTQSPLSLPVTLGQPASISCRASQSLVHSNGNTYLHWYQQRPGQSPRLLIYRVSNRFSGVPDRFSGSGSGTDFTLKISRVEAEDVGVYYCSQSTHVPPTFGQGTKLEIK"
test_result = "30 nM"

[[record]]
binder = "hL49ec HCLB (antibody, V domains shown) VH: QVQLQESGPGLVKPSETLSLTCTVSGDSITSGYWNWIRQFPGKGLEYMGYISDSGITYYNPSLKSRITISRDTSKNQYSLKLSFVTAADTAVYNCARRTLATYYAMDYWGQGTLVTVSS VL: DFVMTQSPLSLPVTLGQPASISCRASQSLVHSNGNTYLHWYQQRPGQSPRLLIYRVSNRFSGVPDRFSGSGSGTDFTLKISRVEAEDVGVYYCSQSTHVPPTFGQGTKLEIK"
test_result = "20 nM"

[[record]]
binder = "hL49ec HCLA (antibody, V domains shown) VH: QVQLQESGPGLVKPSETLSLTCTVSGDSITSGYWNWIRQFPGKGLEYMGYISDSGITYYNPSLKSRITISRDTSKNQYSLKLSFVTAADTAVYNCARRTLATYYAMDYWGQGTLVTVSS VL: DFVMTQSPLSLPVTLGQPASISCRASQSLVHSNGNTYLHWFQQRPGQSPRRLIYRVSNRFSGVPDRFSGSGSGTDFTLKISRVEAEDVGVYYCSQSTHVPPTFGQGTKLEIK"
test_result = "60 nM"

[[record]]
binder = "hL49ec HBLA (antibody, V domains shown) VH: QVQLQESGPGLVKPSETLSLTCTVSGDSITSGYWNWIRQFPGKGLEYMGYISDSGITYYNPSLKSRITISRDTSKNQYSLKLSSVTAADTAVYYCARRTLATYYAMDYWGQGTLVTVSS VL: DFVMTQSPLSLPVTLGQPASISCRASQSLVHSNGNTYLHWFQQRPGQSPRRLIYRVSNRFSGVPDRFSGSGSGTDFTLKISRVEAEDVGVYYCSQSTHVPPTFGQGTKLEIK"
test_result = "40 nM"

